// data source = ChEMBL document CHEMBL4425148

# pIC50 per entry
- System: A549
- Experimental protocol: Cytotoxicity against human A549 cells assessed as reduction in cell growth incubated for 48 hrs by MTT assay
- Type: functional, cell-based
- Test conditions: A549, 48 h
# pIC50 = -log10(concentration in molar units)

Recorded pIC50, per entry:
{"columns": ["Structure", "Assay system", "Endpoint name", "Numeric result"],
 "data": [
  ["COc1c(-c2cc(O)c3c(c2)C=CC(C)(C)O3)oc2c3c(cc(O)c2c1=O)OC(C)(C)[C@@H](O)C3", "A549", "pIC50", 5.27],
  ["CC(C)=CCc1cc([C@@H]2CC(=O)c3ccc(O)cc3O2)c2c(c1O)OC(C)(C)CC2", "A549", "pIC50", 4.74],
  ["CC(C)=CCc1c(-c2ccc(O)cc2O)oc2c3c(cc(O)c2c1=O)OC(C)(C)C=C3", "A549", "pIC50", 4.62]
]}

Known value: A549 pIC50 of the compound `COc1c(-c2cc(O)c3c(c2)C=CC(C)(C)O3)oc2c(CC=C(C)C)c(O)cc(O)c2c1=O` equals 4.18

Known value: A549 pIC50 of the compound `O=c1[nH]cc(F)c(=O)[nH]1` equals 4.61

Known value: A549 pIC50 of the compound `COc1c(-c2ccc(O)c(O)c2)oc2c(CC=C(C)C)c(O)c(CC=C(C)C)c(O)c2c1=O` equals 4.60

====

# IC50 per entry
- Tested on: Bcap37
- Experimental protocol: Cytotoxicity against human Bcap37 cells assessed as reduction in cell growth incubated for 48 hrs by MTT assay
- Type: functional, cell-based
- Test conditions: Bcap37, 48 h
The figure you give is taken to be in µM; do not add the unit.

Reported IC50 of `COc1c(-c2ccc(O)c(O)c2)oc2c(CC=C(C)C)c(O)c(CC=C(C)C)c(O)c2c1=O` : 45.4

Reported IC50 of `COc1c(-c2cc(O)c3c(c2)C=CC(C)(C)O3)oc2c3c(cc(O)c2c1=O)OC(C)(C)[C@@H](O)C3` : 20.8

Reported IC50 of `CC(C)=CCc1c(-c2ccc(O)cc2O)oc2c3c(cc(O)c2c1=O)OC(C)(C)C=C3` : 33.1

Reported IC50 of `O=c1[nH]cc(F)c(=O)[nH]1` : 37.1

====

# pIC50 per entry
- System: Bcap37
- Experimental protocol: Cytotoxicity against human Bcap37 cells assessed as reduction in cell growth incubated for 48 hrs by MTT assay
- Type: functional, cell-based
- Test conditions: Bcap37, 48 h
pIC50: −log10 of the molar value.

{"columns": ["Compound", "pIC50"],
 "data": [
  ["COc1c(-c2cc(O)c3c(c2)C=CC(C)(C)O3)oc2c(CC=C(C)C)c(O)cc(O)c2c1=O", "< 4.00"],
  ["CC(C)=CCc1cc([C@@H]2CC(=O)c3ccc(O)cc3O2)c2c(c1O)OC(C)(C)CC2", "< 4.00"]
]}

Reported pIC50 of COc1ccc(-c2cc(=O)c3c(O)c(OC)c(O)cc3o2)cc1OC [EUPATILIN] : < 4.00
